Test system: PC-3 prostate
EXPERIMENT DESCRIPTION: NCI tumour cell line growth inhibition, 48 h
RESULT TYPE: TGI

Q: Could you tell me which TGI is on file for O=P(O)(O)C(N=C(Nc1ccccc1)Nc1ccccc1)P(=O)(O)O ?
Ans: > 100 µM

Q: Could you tell me which TGI is on file for N#Cc1nn(-c2cc(=O)[nH]c3ccc(Cl)cc23)c(N)c1C#N ?
Ans: > 100 µM

Q: Could you tell me which TGI is on file for Cc1nnc(Nc2ccc(NC(=O)Nc3ccc(Cl)cc3)cc2)c2ccccc12 ?
Ans: 11.9 µM

Q: Could you tell me which TGI is on file for O=C(O)CN1CCNCCN(CC(=O)O)CCN(CC(=O)O)CCNCC1 ?
Ans: > 100 µM

Q: Could you tell me which TGI is on file for CN(C)CC[C@H](CSc1ccccc1)Nc1ccc(S(=O)(=O)NC(=O)c2ccc(N3CCN(Cc4ccccc4-c4ccc(Cl)cc4)CC3)cc2)cc1[N+](=O)[O-] ?
Ans: > 100 µM

Q: Could you tell me which TGI is on file for COc1ccc(C(=O)Nc2ccc(O)c(=O)cc2)cc1 ?
Ans: > 100 µM

Q: Could you tell me which TGI is on file for O=C(O)CN1CCN2CCCCCN(CC1)CCN(CC(=O)O)CC2 ?
Ans: > 100 µM

Q: Could you tell me which TGI is on file for CCOC(=O)c1cccc(N=Nc2nc[nH]c2/C=C/C(=O)OC)c1 ?
Ans: > 100 µM

Q: Could you tell me which TGI is on file for COC(=O)c1c2c(c(C)[n+]([O-])c1C)C(=O)C=C(NCc1ccc(F)cc1)C2=O ?
Ans: 3.68 µM

Q: Could you tell me which TGI is on file for NC(=O)c1c(NC(=O)c2ccccc2)sc2c1CCC(=O)C2 ?
Ans: 17.6 µM

Q: Could you tell me which TGI is on file for C=C1CC(C#N)(C#N)[C@H]2C3CCCC3C[C@@H]12 (stereo partly specified) (tested in a mixture with another compound) ?
Ans: 97.4 µM

Q: Could you tell me which TGI is on file for O=S(=O)(O)C(CO)c1ccccc1 (stereo unspecified) (tested in a mixture with another compound) ?
Ans: > 100 µM

Q: Could you tell me which TGI is on file for Cn1c(SCc2ccc(F)cc2)nnc1C12CC3CC(CC(C3)C1)C2 ?
Ans: > 100 µM

Q: Could you tell me which TGI is on file for O=c1oc2ccc(-c3ccc(F)cc3F)cc2c(=O)n1-c1cccc(C(F)(F)F)c1 ?
Ans: 12.4 µM

Q: Could you tell me which TGI is on file for C=C1C(=O)CC2C1CC(=O)/C(C)=C/CCC(C)(O)C2O (stereo unspecified) ?
Ans: 23.3 µM

Q: Could you tell me which TGI is on file for CCCNc1ncnc2c1ncn2C ?
Ans: > 100 µM

Q: Could you tell me which TGI is on file for O=c1c(F)cn(Cc2ccc(C34CC5CC(CC(C5)C3)C4)c(O)c2)c(=O)n1Cc1ccc(C23CC4CC(CC(C4)C2)C3)c(O)c1 ?
Ans: 24.2 µM

Q: Could you tell me which TGI is on file for CN1CCOC1c1ccccc1O (stereo unspecified) ?
Ans: > 100 µM

Q: Could you tell me which TGI is on file for N#CNC(=NCc1ccccc1)N(Cc1ccccc1)Cc1ccccc1 ?
Ans: > 100 µM

Q: Could you tell me which TGI is on file for COc1cc(OC)cc(C(=O)CC(=O)c2cc(OC)cc(OC)c2)c1 ?
Ans: > 100 µM

Q: Could you tell me which TGI is on file for C=CCn1c(=O)c(C(=O)Nc2nc(C34CC5CC(CC(C5)C3)C4)cs2)c(O)c2ccccc21 ?
Ans: > 100 µM
